Values were extracted from patent US20090181963A1.

pIC50: −log10 of the molar value.
// each record: one item and its pIC50 for UniProt P48736
endpointLabel: pIC50

[
  {
    "moleculeSmiles": "Cc1cc(CN2CCC(n3nnc4c(N5CCOCC5)nc(-c5cncc(O)c5)nc43)CC2)sc1C",
    "pIC50": 6.97
  }
]

1: O=C(Nc1ccccc1)Nc1ccc(-c2nc(N3CCOCC3)c3nnn(CC4CN(Cc5ccc(F)cc5)C4)c3n2)cc1
2: CCn1nnc2c(N3CCOCC3)nc(-c3ccc(NC(=O)Nc4ccc(C(=O)OC)nc4)cc3)nc21
3: CN(C)CCNC(=O)Nc1ccc(-c2nc(N3CCOCC3)c3nnn(C4CCN(Cc5ccc(F)nc5)CC4)c3n2)cc1
Highest pIC50 first, then in falling order down to the smallest. To answer, arrange all of the labels according to the requested order. 2, 3, 1

P: O=C(O)c1ccc(Cn2nnc3c(N4CCOCC4)nc(-c4cccc(O)c4)nc32)cc1
Q: CN(C)CCCOc1ccc(CN2CCN(CCn3nnc4c(N5CCOCC5)nc(-c5cccc(O)c5)nc43)CC2)cc1
# query: argmin of pIC50 over P and Q # reply format: chosen label P
(P: 6.07, Q: 6.40)

----------
Target: PI3 Kinase γ (Homo sapiens)
Sequence (P48736 whole entry): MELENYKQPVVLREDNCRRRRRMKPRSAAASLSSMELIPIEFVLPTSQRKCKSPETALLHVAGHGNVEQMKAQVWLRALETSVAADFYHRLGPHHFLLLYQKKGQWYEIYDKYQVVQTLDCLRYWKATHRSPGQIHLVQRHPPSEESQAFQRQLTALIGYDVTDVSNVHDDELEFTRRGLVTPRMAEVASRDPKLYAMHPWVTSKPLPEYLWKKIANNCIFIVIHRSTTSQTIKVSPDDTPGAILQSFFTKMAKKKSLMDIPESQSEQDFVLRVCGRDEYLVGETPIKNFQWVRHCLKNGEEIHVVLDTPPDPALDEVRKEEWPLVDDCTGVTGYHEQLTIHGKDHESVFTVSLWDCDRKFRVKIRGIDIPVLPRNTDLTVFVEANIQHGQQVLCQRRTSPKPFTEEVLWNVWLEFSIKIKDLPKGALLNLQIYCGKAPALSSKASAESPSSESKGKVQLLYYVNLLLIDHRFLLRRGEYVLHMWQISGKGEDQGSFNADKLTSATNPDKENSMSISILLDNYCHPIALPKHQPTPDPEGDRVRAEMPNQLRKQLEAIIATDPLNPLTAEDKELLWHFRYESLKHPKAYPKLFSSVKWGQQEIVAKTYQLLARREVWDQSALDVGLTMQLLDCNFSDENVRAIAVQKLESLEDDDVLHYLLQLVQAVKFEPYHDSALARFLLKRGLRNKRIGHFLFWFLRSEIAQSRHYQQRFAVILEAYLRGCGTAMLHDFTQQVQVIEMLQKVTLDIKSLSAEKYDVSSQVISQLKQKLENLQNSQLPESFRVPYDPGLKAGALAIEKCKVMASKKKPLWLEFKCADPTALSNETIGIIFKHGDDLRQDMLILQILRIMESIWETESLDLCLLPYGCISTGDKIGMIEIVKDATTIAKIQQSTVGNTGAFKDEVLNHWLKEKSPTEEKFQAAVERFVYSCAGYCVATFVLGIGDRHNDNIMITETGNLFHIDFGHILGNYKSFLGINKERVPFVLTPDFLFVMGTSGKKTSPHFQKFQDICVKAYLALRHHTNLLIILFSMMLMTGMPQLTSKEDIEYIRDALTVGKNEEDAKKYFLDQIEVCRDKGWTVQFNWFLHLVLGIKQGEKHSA
pIC50: −log10 of the molar value.
endpointLabel: pIC50

P: CCn1nnc2c(N3CCOC[C@@H]3C)nc(-c3ccc(NC(=O)Nc4ccc(CCO)cc4)cc3)nc21
Q: O=C(Nc1ccc(-c2nc(N3CCOCC3)c3nnn(C4CCN(Cc5ccccc5)CC4)c3n2)cc1)C(F)(F)F
R: CC(C)(C)OC(=O)Cn1nnc2c(N3CCOCC3)nc(-c3cccc(CO)c3)nc21
Sort entries by pIC50 from minimum to maximum value. To answer, arrange all of the labels according to the requested order. R, Q, P
(R: 5.71, Q: 6.88, P: 7.15)

a: CC(C)(C)OC(=O)N1CC(n2nnc3c(N4CCOCC4)nc(-c4ccc(NC(=O)Nc5ccncc5)cc4)nc32)C1
b: CC(C)(C)OC(=O)N1CCC(n2nnc3c(N4CCOCC4)nc(-c4ccc(NC(=O)Nc5ccc(F)cc5)cc4)nc32)CC1
c: O=C(c1ccc(Cn2nnc3c(N4CCOCC4)nc(-c4cccc(O)c4)nc32)cc1)N1CCCCC1
Highest pIC50 first, then in falling order down to the smallest. To answer, arrange all of the labels according to the requested order. a, c, b

I: O=C(Nc1ccc(Cn2nnc3c(N4CCOCC4)nc(-c4cccc(O)c4)nc32)cc1)c1ccc(Cl)cc1
II: COC(=O)c1ccc(Cn2nnc3c(N4CCOCC4)nc(-c4cccc(O)c4)nc32)cc1
Lab note: record which item had the higher pIC50, I or II . # reply format: chosen label I
(I: 6.66, II: 5.31)

----------
Molecular target: PI3 Kinase γ (Homo sapiens)
endpointLabel: IC50 (nM)

1: Oc1cccc(-c2nc(N3CCOCC3)c3nnn(CCN4CCN(C5CCCCC5)CC4)c3n2)c1
2: CNC(=O)Nc1ccc(-c2nc(N3CCOCC3)c3nnn(C4CCN(Cc5ccccc5)CC4)c3n2)cc1
3: CC(C)n1nnc2c(N3CCOCC3)nc(-c3ccc(NC(=O)Nc4ccc(C(N)=O)cc4)cc3)nc21
Which order do these items fall in when sorted by IC50 from largest to smallest? To answer, arrange all of the labels according to the requested order. 1, 2, 3
(1: 2140 nM, 2: 620 nM, 3: 18 nM)

----------
// each record: one item and its IC50 for PI3 Kinase γ (Homo sapiens, UniProt P48736)
endpointLabel: IC50 (nM)

The examples below pair each entry with its known result.
[
  {
    "moleculeSmiles": "CCn1nnc2c(N3CCOC[C@@H]3C)nc(-c3ccc(NC(=O)Nc4cccs4)cc3)nc21",
    "targetOrTestSystem": "PI3 Kinase γ (Homo sapiens, UniProt P48736)",
    "endpointLabel": "IC50",
    "unitAbbreviation": "nM",
    "observedValue": 97.5
  },
  {
    "moleculeSmiles": "CNC(=O)c1cccc(-n2nnc3c(N4CCOCC4)nc(-c4cccc(O)c4)nc32)c1",
    "targetOrTestSystem": "PI3 Kinase γ (Homo sapiens, UniProt P48736)",
    "endpointLabel": "IC50",
    "unitAbbreviation": "nM",
    "observedValue": 551
  },
  {
    "moleculeSmiles": "CCn1nnc2c(N3CCOC[C@@H]3C)nc(-c3ccc(NC(=O)Nc4ccc(CO)cc4)cc3)nc21",
    "targetOrTestSystem": "PI3 Kinase γ (Homo sapiens, UniProt P48736)",
    "endpointLabel": "IC50",
    "unitAbbreviation": "nM",
    "observedValue": 102
  },
  {
    "moleculeSmiles": "CN(C)CCNC(=O)Nc1ccc(-c2nc(N3CCOCC3)c3nnn(C4CCN(Cc5ccc(F)cc5)CC4)c3n2)cc1",
    "targetOrTestSystem": "PI3 Kinase γ (Homo sapiens, UniProt P48736)",
    "endpointLabel": "IC50",
    "unitAbbreviation": "nM",
    "observedValue": 176
  },
  {
    "moleculeSmiles": "O=C(Nc1ccccc1)Nc1ccc(-c2nc(N3CCOCC3)c3nnn(-c4cccc(C(=O)O)c4)c3n2)cc1",
    "targetOrTestSystem": "PI3 Kinase γ (Homo sapiens, UniProt P48736)",
    "endpointLabel": "IC50",
    "unitAbbreviation": "nM",
    "observedValue": 8.5
  }
]

a: O=C(Nc1ccccc1)Nc1ccc(-c2nc(N3CCOCC3)c3nnn(CC4CN(C(=O)c5ccccc5)C4)c3n2)cc1
b: O=C(Nc1ccc(-c2nc(N3CCOCC3)c3nnn(CC(F)(F)F)c3n2)cc1)Nc1cccs1
# query: argmin of IC50 over a and b # reply format: chosen label b
(b: 30 nM, a: 346 nM)

----------
Molecular target: PI3 Kinase α (Homo sapiens, UniProt P42336)
Sequence (P42336 whole entry): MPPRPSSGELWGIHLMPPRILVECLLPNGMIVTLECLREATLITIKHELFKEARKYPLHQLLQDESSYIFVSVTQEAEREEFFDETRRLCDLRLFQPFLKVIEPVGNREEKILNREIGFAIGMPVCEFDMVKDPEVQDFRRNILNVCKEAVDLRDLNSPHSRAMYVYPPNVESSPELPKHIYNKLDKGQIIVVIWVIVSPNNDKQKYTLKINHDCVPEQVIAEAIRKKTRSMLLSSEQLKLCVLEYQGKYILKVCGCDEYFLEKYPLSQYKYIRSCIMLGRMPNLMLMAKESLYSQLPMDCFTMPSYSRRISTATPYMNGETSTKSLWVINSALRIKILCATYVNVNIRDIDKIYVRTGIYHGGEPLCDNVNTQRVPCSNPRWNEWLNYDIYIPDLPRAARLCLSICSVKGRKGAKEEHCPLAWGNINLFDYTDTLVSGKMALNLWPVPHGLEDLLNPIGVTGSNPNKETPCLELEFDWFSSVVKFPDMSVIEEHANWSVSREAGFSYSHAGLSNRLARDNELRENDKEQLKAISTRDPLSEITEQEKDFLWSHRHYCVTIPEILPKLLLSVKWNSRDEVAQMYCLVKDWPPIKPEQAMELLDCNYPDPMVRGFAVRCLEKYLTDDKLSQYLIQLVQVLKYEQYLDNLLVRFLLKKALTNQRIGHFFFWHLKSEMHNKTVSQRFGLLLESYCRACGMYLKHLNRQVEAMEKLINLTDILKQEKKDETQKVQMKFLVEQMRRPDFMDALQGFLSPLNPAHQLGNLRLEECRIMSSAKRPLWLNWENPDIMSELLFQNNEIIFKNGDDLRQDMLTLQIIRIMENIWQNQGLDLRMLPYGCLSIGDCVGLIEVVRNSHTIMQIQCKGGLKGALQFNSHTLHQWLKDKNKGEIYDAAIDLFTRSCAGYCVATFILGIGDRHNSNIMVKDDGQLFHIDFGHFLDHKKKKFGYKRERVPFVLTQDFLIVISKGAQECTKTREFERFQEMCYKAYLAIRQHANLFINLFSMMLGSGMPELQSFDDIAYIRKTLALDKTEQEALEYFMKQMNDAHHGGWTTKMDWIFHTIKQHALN
Sequence (P27986 whole entry partner): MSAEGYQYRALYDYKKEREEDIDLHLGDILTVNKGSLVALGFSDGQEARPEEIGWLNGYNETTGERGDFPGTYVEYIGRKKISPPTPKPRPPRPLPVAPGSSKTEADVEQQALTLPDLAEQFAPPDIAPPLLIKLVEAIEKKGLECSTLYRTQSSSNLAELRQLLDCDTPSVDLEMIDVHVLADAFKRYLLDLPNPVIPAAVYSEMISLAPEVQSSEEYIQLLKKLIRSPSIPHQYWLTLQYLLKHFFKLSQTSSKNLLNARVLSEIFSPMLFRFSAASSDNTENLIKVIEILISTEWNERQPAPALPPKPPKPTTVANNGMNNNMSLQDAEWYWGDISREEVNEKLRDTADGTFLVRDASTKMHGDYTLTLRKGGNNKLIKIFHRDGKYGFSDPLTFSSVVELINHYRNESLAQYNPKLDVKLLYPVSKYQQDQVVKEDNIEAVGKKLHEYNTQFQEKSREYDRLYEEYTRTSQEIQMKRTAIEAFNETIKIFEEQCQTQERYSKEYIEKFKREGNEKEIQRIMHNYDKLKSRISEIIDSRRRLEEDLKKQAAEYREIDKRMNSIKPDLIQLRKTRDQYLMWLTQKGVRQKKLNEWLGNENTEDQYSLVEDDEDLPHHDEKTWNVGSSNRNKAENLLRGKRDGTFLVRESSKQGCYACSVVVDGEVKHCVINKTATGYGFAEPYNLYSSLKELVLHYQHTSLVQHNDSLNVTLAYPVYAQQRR
pIC50: −log10 of the molar value.
endpointLabel: pIC50

The examples below pair each entry with its known result.
[
  {
    "compound": "CCn1nnc2c(N3CCOCC3)nc(-c3ccc(NC(=O)OCCc4ccc(N)cc4)cc3)nc21 [Example 38]",
    "pIC50": 6.47
  },
  {
    "compound": "CC(C)n1nnc2c(N3CCOCC3)nc(-c3ccc(NC(N)=O)cc3)nc21 [Example 96]",
    "pIC50": 7.30
  },
  {
    "compound": "Oc1cccc(-c2nc(N3CCOCC3)c3nnn(CCc4ccccn4)c3n2)c1 [Example 196]",
    "pIC50": 7.12
  },
  {
    "compound": "Nc1ncc(-c2nc(N3CCOCC3)c3nnn(C4CCN(Cc5ccccc5)CC4)c3n2)cn1 [Example 2]",
    "pIC50": 5.74
  },
  {
    "compound": "CNC(=O)Nc1ccc(-c2nc(N3CCOCC3)c3nnn(C4CCN(Cc5ccccc5)CC4)c3n2)cc1 [Example 6]",
    "pIC50": 7.00
  }
]

P: CC(C)(C)OC(=O)N1CCC(n2nnc3c(N4CCOCC4)nc(-c4cnc(N)nc4)nc32)CC1 [Example 148]
Q: O=C(Nc1ccncc1)Nc1ccc(-c2nc(N3CCOCC3)c3nnn(C4CC4)c3n2)cc1 [Example 78]
Lab note: record which item had the higher pIC50, P or Q . # reply format: chosen label Q
(Q: 8.22, P: 6.95)

A: Cc1ccc(CN2CCC(n3nnc4c(N5CCOCC5)nc(-c5ccc(NC(=O)NCCN(C)C)cc5)nc43)CC2)s1 [Example 158]
B: O=C(Nc1ccccc1)Nc1ccc(-c2nc(N3CCOCC3)c3nnn(-c4cccc(C(=O)O)c4)c3n2)cc1 [Example 123]
# query: argmin of pIC50 over A and B # reply format: chosen label A
(A: 7.13, B: 8.40)

1: CCN1CCCC1CNC(=O)c1ccc(NC(=O)Nc2ccc(-c3nc(N4CCOCC4)c4nnn(CC)c4n3)cc2)cc1 (centres unmarked) [Example 59]
2: Oc1cncc(-c2nc(N3CCOCC3)c3nnn(C4CCN(Cc5ccccc5)CC4)c3n2)c1 [Example 3]
Lab note: record which item had the higher pIC50, 1 or 2 . # reply format: chosen label 1

A: CCn1nnc2c(N3CCOCC3)nc(-c3ccc(NC(=O)Nc4ccc(C(=O)N5CCN(c6ccccn6)CC5)cc4)cc3)nc21 [Example 58]
B: CC(C)n1nnc2c(N3CCOCC3)nc(-c3ccc(NC(=O)Nc4ccc(N5CCOCC5)cc4)cc3)nc21 [Example 85]
Lab note: record which item had the higher pIC50, A or B . # reply format: chosen label A

----------
// each record: one item and its IC50 for PI3 Kinase α (Homo sapiens)
endpointLabel: IC50 (nM)

I: CN(C)CCNC(=O)Nc1ccc(-c2nc(N3CCOCC3)c3nnn(C4CCN(C(=O)OC(C)(C)C)CC4)c3n2)cc1 [Example 151]
II: CN(C)CCNC(=O)Cn1nnc2c(N3CCOCC3)nc(-c3cccc(CO)c3)nc21 [Example 239]
III: COC(Cn1nnc2c(N3CCOCC3)nc(-c3ccc(NC(=O)Nc4ccc(F)cc4)cc3)nc21)OC [Example 180]
Sort entries by IC50 from minimum to maximum value. To answer, arrange all of the labels according to the requested order. III, I, II
